Experiment: Rat plasma pharmacokinetics after single-dose vehicle/SLE and digoxin or GE
Assay type: in vivo, Sprague-Dawley rats
Conditions: rats, control: single vehicle, 2 h later digoxin 0.5 mg/kg or GE 120 mg/kg ig
Method: This study was carried out in strict accordance with the recommendations in the Guide for the Care and Use of Laboratory Animals of the National Institutes of Health. […] Pharmacokinetic parameters were calculated using the WinNonlin 6.3 program (Pharsight Inc., Mountain View, CA). The elimination half-life (t 1/2) value was calculated as 0.693/β, where β is the elimination rate constant calculated from the terminal linear portion of the log plasma concentration-time curve. […]
The entries below come with measured Cl_F_obs values attached.
PROPERTY: Cl_F_obs

INSERT INTO assay_data (compound, property, reported_measurement) VALUES
  ('CC(C)=CCC[C@](C)(O[C@@H]1O[C@H](CO)[C@@H](O)[C@H](O)[C@H]1O)[C@H]1CC[C@]2(C)[C@@H]1[C@H](O)C[C@@H]1[C@@]3(C)CC[C@H](O[C@@H]4O[C@H](CO)[C@@H](O)[C@H](O)[C@H]4O[C@@H]4O[C@H](CO)[C@@H](O)[C@H](O)[C@H]4O)C(C)(C)[C@@H]3CC[C@]12C [Rd, ginsenoside Rd]', 'Cl_F_obs', '0.014 ± 0.003 L/h'),
  ('CC(C)=CCC[C@](C)(O[C@@H]1O[C@H](CO[C@@H]2OC[C@H](O)[C@H](O)[C@H]2O)[C@@H](O)[C@H](O)[C@H]1O)[C@H]1CC[C@]2(C)[C@@H]1[C@H](O)C[C@@H]1[C@@]3(C)CC[C@H](O[C@@H]4O[C@H](CO)[C@@H](O)[C@H](O)[C@H]4O[C@@H]4O[C@H](CO)[C@@H](O)[C@H](O)[C@H]4O)C(C)(C)[C@@H]3CC[C@]12C [Rb2, ginsenoside Rb2]', 'Cl_F_obs', '0.012 ± 0.003 L/h'),
  ('C[C@H]1O[C@@H](O[C@H]2[C@@H](O)C[C@H](O[C@H]3[C@@H](O)C[C@H](O[C@H]4CC[C@@]5(C)[C@H](CC[C@@H]6[C@@H]5C[C@@H](O)[C@]5(C)[C@@H](C7=CC(=O)OC7)CC[C@]65O)C4)O[C@@H]3C)O[C@@H]2C)C[C@H](O)[C@@H]1O [Digoxin, digoxin, reference compound]', 'Cl_F_obs', '7.66 ± 1.53 L/h');

====

Assay: Rat plasma pharmacokinetics after single-dose vehicle/SLE and digoxin or GE
Type: in vivo, Sprague-Dawley rats
Conditions: female, Sprague-Dawley, rat, plasma, po, rats, control: single vehicle, 2 h later digoxin 0.5 mg/kg or GE 120 mg/kg ig
PROPERTY: Cmax (ng/mL)

INSERT INTO results (molecule, property, value_units, reported_measurement) VALUES
  ('CC(C)=CCC[C@](C)(O[C@@H]1O[C@H](CO)[C@@H](O)[C@H](O)[C@H]1O)[C@H]1CC[C@]2(C)[C@@H]1[C@H](O)C[C@@H]1[C@@]3(C)CC[C@H](O[C@@H]4O[C@H](CO)[C@@H](O)[C@H](O)[C@H]4O[C@@H]4O[C@H](CO)[C@@H](O)[C@H](O)[C@H]4O)C(C)(C)[C@@H]3CC[C@]12C [Rd, ginsenoside Rd]', 'Cmax', 'ng/mL', 237),
  ('CC(C)=CCC[C@](C)(O[C@@H]1O[C@H](CO[C@@H]2O[C@H](CO)[C@@H](O)[C@H](O)[C@H]2O)[C@@H](O)[C@H](O)[C@H]1O)[C@H]1CC[C@]2(C)[C@@H]1[C@H](O)C[C@@H]1[C@@]3(C)CC[C@H](O[C@@H]4O[C@H](CO)[C@@H](O)[C@H](O)[C@H]4O[C@@H]4O[C@H](CO)[C@@H](O)[C@H](O)[C@H]4O)C(C)(C)[C@@H]3CC[C@]12C [Rb1, ginsenoside Rb1]', 'Cmax', 'ng/mL', 491),
  ('C[C@H]1O[C@@H](O[C@H]2[C@@H](O)C[C@H](O[C@H]3[C@@H](O)C[C@H](O[C@H]4CC[C@@]5(C)[C@H](CC[C@@H]6[C@@H]5C[C@@H](O)[C@]5(C)[C@@H](C7=CC(=O)OC7)CC[C@]65O)C4)O[C@@H]3C)O[C@@H]2C)C[C@H](O)[C@@H]1O [Digoxin, digoxin, reference compound]', 'Cmax', 'ng/mL', 15),
  ('CC(C)=CCC[C@](C)(O[C@@H]1O[C@H](CO[C@@H]2OC[C@H](O)[C@H](O)[C@H]2O)[C@@H](O)[C@H](O)[C@H]1O)[C@H]1CC[C@]2(C)[C@@H]1[C@H](O)C[C@@H]1[C@@]3(C)CC[C@H](O[C@@H]4O[C@H](CO)[C@@H](O)[C@H](O)[C@H]4O[C@@H]4O[C@H](CO)[C@@H](O)[C@H](O)[C@H]4O)C(C)(C)[C@@H]3CC[C@]12C [Rb2, ginsenoside Rb2]', 'Cmax', 'ng/mL', 330);

Data provenance is paper PMC4055595.
